target: Opioid Kappa Receptor (recombinant human, HEK293 cells) (Homo sapiens (Human))
assayName: cell-based
runParameters: read-out: EC50
Collected EC50 values appear next to each entry.
Quick note: give the figure in nM, leave out the unit.

Known results for compounds:
CC(C)C[C@@H](NC(=O)[C@@H](Cc1ccccc1)NC(=O)[C@H](N)Cc1ccccc1)C(=O)N[C@H](CCCCN)C(=O)N1CC(=O)NC(=O)C1
5.2
CC(C)C[C@@H](NC(=O)[C@@H](Cc1ccccc1)NC(=O)[C@H](N)Cc1ccccc1)C(=O)N[C@H](CCCCN)C(=O)N1CCC(N)(C(=O)OCCO)C1 (stereo partly drawn)
9.07

The record that follows has no EC50 shown yet.
Q: Entry COCCOCCNC(=O)[C@@H](CCCCN)NC(=O)[C@@H](CC(C)C)NC(=O)[C@@H](Cc1ccccc1)NC(=O)[C@H](N)Cc1ccccc1 has what EC50?
A: 13.5

---

Collected IC50 values appear next to each entry.
target: recombinant human delta (DOR) opioid receptor (Homo sapiens (Human), UniProt P41143)
Sequence (P41143 whole entry, looked up): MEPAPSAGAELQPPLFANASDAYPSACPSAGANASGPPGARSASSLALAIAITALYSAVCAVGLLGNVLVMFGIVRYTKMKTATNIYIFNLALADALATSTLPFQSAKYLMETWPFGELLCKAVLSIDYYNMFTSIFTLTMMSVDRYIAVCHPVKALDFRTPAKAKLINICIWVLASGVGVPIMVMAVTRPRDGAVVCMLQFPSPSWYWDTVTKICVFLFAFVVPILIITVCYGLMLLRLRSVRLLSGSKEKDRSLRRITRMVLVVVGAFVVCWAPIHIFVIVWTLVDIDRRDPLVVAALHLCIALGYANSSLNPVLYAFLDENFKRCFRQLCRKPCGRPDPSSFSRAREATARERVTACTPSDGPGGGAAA
assayName: Opioid receptor radioligand binding assay, DOR
runParameters: HEK293 cell membranes, 0.5 nM [3H]DADLE; read-out: DOR, IC50

CNC(=O)C(=O)N1CCN(C(=O)[C@@H](CCCCN)NC(=O)[C@@H](CC(C)C)NC(=O)[C@@H](Cc2ccccc2)NC(=O)[C@H](N)Cc2ccccc2)CC1 [Compound 13-27]
> 10 µM
CC(C)C[C@@H](NC(=O)[C@@H](Cc1ccccc1)NC(=O)[C@H](N)Cc1ccccc1)C(=O)N[C@H](CCCCN)C(=O)N1CCN(C(=O)C(=O)NC2CC2)CC1 [Compound 13-23]
> 10 µM
CC(C)C[C@@H](NC(=O)[C@@H](Cc1ccccc1)NC(=O)[C@H](N)Cc1ccccc1)C(=O)N[C@H](CCCCN)C(=O)N1CCN(C(=O)/C=C/C(=O)O)CC1 [Compound 13-25]
> 10 µM

The record that follows has no IC50 shown yet.
Q: Entry CC(C)C[C@@H](NC(=O)[C@@H](Cc1ccccc1)NC(=O)[C@H](N)Cc1ccccc1)C(=O)N[C@H](CCCCN)C(=O)NC[C@H](N)C(=O)O [Compound 13-13] has what IC50?
A: > 10 µM

---

target: recombinant human kappa (KOR) opioid receptor (Homo sapiens (Human))
assayName: biochemical
Assay type: binding
runParameters: HEK293 cell membranes, 0.5 nM [3H]diprenorphine
Collected pIC50 values appear next to each entry.
Quick note: pIC50 means taking -log10 of the concentration in moles per liter.

CC(C)C[C@@H](NC(=O)[C@@H](Cc1ccccc1)NC(=O)[C@H](N)Cc1ccccc1)C(=O)N[C@H](CCCCN)C(=O)N1CCC2(CC1)CNC(=O)N2
9.51
CC(C)C[C@@H](NC(=O)[C@@H](Cc1ccccc1)NC(=O)[C@H](N)Cc1ccccc1)C(=O)N[C@H](CCCCN)C(=O)N1CCC(N)(C(=O)OCCO)C1 (some centres unmarked)
9.41
CNC(=O)N1CCN(C(=O)[C@@H](CCCCN)NC(=O)[C@@H](CC(C)C)NC(=O)[C@@H](Cc2ccccc2)NC(=O)[C@H](N)Cc2ccccc2)CC1
9.54
COCCNC(=O)[C@@H](CCCCN)NC(=O)[C@@H](CC(C)C)NC(=O)[C@@H](Cc1ccccc1)NC(=O)[C@H](N)Cc1ccccc1
8.86

The record that follows has no pIC50 shown yet.
Q: Entry CC(C)C[C@@H](NC(=O)[C@@H](Cc1ccccc1)NC(=O)[C@H](N)Cc1ccccc1)C(=O)N[C@H](CCCCN)C(=O)NCc1ccc2c(c1)OCO2 has what pIC50?
A: 8.71
